tested.target: Siderocalin (Scn) (Homo sapiens)
Sequence (P80188 21-198): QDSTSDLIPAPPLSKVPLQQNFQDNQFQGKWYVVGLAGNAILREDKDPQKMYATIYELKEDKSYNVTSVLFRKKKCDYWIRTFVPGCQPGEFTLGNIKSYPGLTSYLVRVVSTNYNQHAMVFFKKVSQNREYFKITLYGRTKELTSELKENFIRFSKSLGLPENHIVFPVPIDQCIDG
procedure.details: Fluorescence quenching binding assay of Scn
condition.notes: V^IV complex; 100 nM Scn, TBS pH 7.4, 5% DMSO
For each of the molecules below, state its pKd.
In textbook form, pKd equals minus log to base ten of the concentration in mol/L.

Name the recorded pKd for O=C(NCCN(CCNC(=O)c1cccc(O)c1O)CCNC(=O)c1cccc(=O)n1O)c1cccc(O)c1O [trenCAM2(1,2-HOPO), tren(CAM)2(1,2-HOPO)] .
7.40

Name the recorded pKd for O=C(NCCN(CCNC(=O)c1cccc(=O)n1O)CCNC(=O)c1cccc(=O)n1O)c1cccc(O)c1O [trenCAM(1,2-HOPO)2, tren(CAM)(1,2-HOPO)2] .
6.66

Name the recorded pKd for O=C(NCCN(CCNC(=O)c1cccc(O)c1O)CCNC(=O)c1cccc(O)c1O)c1cccc(O)c1O [trenCAM3, tren(CAM)3] .
8.89

Name the recorded pKd for O=C(NCCN(CCNC(=O)c1cccc(=O)n1O)CCNC(=O)c1cccc(=O)n1O)c1cccc(=O)n1O [tren(1,2-HOPO)3] .
6.52
